From: PubChem BioAssay (EPA / NIEHS)

- Read-out: Monocyte Chemoattractant Protein-1 (MCP1), CCL2 (gene 6347)
- ASSAY NAME: BSK_LPS_MCP1: BioMAP Diversity Plus: LPS Assay for Monocyte Chemoattractant Protein-1 (MCP1) Biomarker Activity (AID 2283081)
- EXPERIMENTAL SETUP: primary human HUVEC with PBMC; actives raise or lower the signal
Calls of active or inactive are those of the source. Rule for the calls: active = hit-call score of the fitted dose curve at least 0.9, where 1 is the maximum; inactive = score below 0.9.
Respond using exactly one of the listed classes: active, inactive

Recorded results for 3 compounds are shown here.
compound=C=CC(=O)OCCCCCC(C)C assigned_category=inactive
compound="CC(=O)C(Cl)C(=O)N(C)C (centres undefined)" assigned_category=active
compound=Cn1sc(Cl)cc1=O assigned_category=active

As a next step, examine the compound that follows.
Task: For "COP(=S)(OC)Oc1cc(Cl)c(Cl)cc1Cl" , what call appears in the results of this test?
Result: inactive

---

- Read-out: E-selectin (Homo sapiens)
- ASSAY NAME: BSK_SAg_Eselectin: BioMAP Diversity Plus: SAg Assay for Eselectin Biomarker Activity (AID 2283091)
- EXPERIMENTAL SETUP: primary human HUVEC with PBMC; actives raise or lower the signal
Activity calls are given as the source filed them. How the source made its calls: active means hit-call score of the fitted dose curve at least 0.9, where 1 is the maximum; inactive means score below 0.9.
METRIC: AC50

Example entries and their recorded answers appear below.
compound=CCN1CCC2(CC1)COc1cc3c(cc12)N(C(=O)c1ccc(-c2ccc(-c4nnc(C)o4)cc2C)cc1)CC3 metric=AC50 measurement="13.3 µM (active)"
compound="CC(=O)C(Cl)C(=O)N(C)C (stereo unspecified)" metric=AC50 measurement="25.4 µM (active)"
compound=CCCCCCCCc1ccc(O)cc1 metric=AC50 measurement="29.2 µM (active)"
compound=O=c1[nH]c(=O)[nH]c(=O)[nH]1 metric=AC50 measurement=inactive
compound=CC(=O)[O][Hg][c]1ccccc1 metric=AC50 measurement="1.58 µM (active)"

Task: Any idea what its AC50 is? The compound is "COC(=O)Cc1ccccc1"
Result: inactive

Task: Any idea what its AC50 is? The compound is "Nc1ncc([N+](=O)[O-])s1"
Result: inactive

Task: Any idea what its AC50 is? The compound is "Cc1ccccc1N"
Result: inactive

Task: Any idea what its AC50 is? The compound is "COP(=S)(OC)Oc1c(Cl)cc(C)cc1Cl"
Result: inactive

Task: Any idea what its AC50 is? The compound is "COC[C@H](C)N(C(=O)CCl)c1c(C)csc1C"
Result: inactive

Task: Any idea what its AC50 is? The compound is CCCCC(CC)CO[N+](=O)[O-] (stereo unspecified)
Result: inactive

---

- MEASURED TARGET: Estrogen receptor (Homo sapiens) (UniProt P03372)
- Sequence (P03372 whole entry, looked up): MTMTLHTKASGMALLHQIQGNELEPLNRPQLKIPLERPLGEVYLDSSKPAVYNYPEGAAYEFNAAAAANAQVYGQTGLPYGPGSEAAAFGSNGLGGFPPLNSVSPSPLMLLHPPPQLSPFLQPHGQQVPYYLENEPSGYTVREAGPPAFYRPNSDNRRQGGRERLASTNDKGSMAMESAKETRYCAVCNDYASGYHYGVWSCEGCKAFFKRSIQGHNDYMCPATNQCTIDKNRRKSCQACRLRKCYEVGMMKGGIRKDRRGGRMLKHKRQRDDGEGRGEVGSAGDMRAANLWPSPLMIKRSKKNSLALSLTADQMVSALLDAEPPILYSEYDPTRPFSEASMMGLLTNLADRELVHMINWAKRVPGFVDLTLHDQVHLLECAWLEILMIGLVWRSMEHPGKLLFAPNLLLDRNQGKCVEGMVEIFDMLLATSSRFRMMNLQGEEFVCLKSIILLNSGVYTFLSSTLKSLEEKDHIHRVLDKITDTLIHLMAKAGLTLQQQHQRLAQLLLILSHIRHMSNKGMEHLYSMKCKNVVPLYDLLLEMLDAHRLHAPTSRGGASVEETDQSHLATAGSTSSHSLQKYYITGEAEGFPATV
- ASSAY NAME: OT_ER_ERaERa_1440: Odyssey Thera (OT) 24-hour HEK293T Protein-Complementation Assay for Estrogen Receptor-alpha/-alpha Homodimer (AID 2283349);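 note: hits raise fluorescence above DMSO for agonists and antagonists alike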
- Experimental: OT_ER_ERaERa_1440 is a cell-based assay that uses HEK293T, a human kidney cell line, with measurements taken at 24 hours after chemical dosing in a 384-well plate.OT_ER_ERaERa_1440 is one of one assay component(s) measured or calculated from the OT_ER_ERaERa_1440 assay. […] This assay endpoint, OT_ER_ERaERa_1440, was analyzed in the positive analysis fitting direction relative to DMSO as the negative control and baseline of activity. […]
Calls of active or inactive are those of the source. Rule for the calls: active = hit-call score of the fitted dose curve at least 0.9, where 1 is the maximum; inconclusive = response in the unintended direction; inactive = score below 0.9.
Respond using exactly one of the listed classes: 1.0 (active), 0.0 (inactive)

Recorded results for 4 compounds are shown here.
compound="CC1(C)CCC(Cc2ccc(Cl)cc2)C1(O)Cn1cncn1 (stereo not drawn)" assigned_category=0.0
compound="Clc1ccc(COC(Cn2ccnc2)c2ccc(Cl)cc2Cl)cc1 (stereo not drawn)" assigned_category=0.0
compound="CNC(=O)O/N=C/C(C)(C)S(C)=O (stereo not drawn)" assigned_category=0.0
compound=OCc1ccco1 assigned_category=0.0

Task: For Fc1ccc(C2(Cn3cncn3)OC2c2ccccc2Cl)cc1 (stereo not drawn) , what call appears in the results of this test?
Result: 1.0

Task: For OCC(O)CCl (stereo not drawn) , what call appears in the results of this test?
Result: 0.0

Task: For "O=C(Nc1ccc2[nH]ccc2c1)c1cc2cc(F)ccc2n1Cc1cccc(F)c1" , what call appears in the results of this test?
Result: 0.0

Task: For "Cl/C=C/Cl" , what call appears in the results of this test?
Result: 0.0

---

- MEASURED TARGET: Bile acid receptor (Homo sapiens) (UniProt Q96RI1)
- Sequence (Q96RI1 whole entry, looked up): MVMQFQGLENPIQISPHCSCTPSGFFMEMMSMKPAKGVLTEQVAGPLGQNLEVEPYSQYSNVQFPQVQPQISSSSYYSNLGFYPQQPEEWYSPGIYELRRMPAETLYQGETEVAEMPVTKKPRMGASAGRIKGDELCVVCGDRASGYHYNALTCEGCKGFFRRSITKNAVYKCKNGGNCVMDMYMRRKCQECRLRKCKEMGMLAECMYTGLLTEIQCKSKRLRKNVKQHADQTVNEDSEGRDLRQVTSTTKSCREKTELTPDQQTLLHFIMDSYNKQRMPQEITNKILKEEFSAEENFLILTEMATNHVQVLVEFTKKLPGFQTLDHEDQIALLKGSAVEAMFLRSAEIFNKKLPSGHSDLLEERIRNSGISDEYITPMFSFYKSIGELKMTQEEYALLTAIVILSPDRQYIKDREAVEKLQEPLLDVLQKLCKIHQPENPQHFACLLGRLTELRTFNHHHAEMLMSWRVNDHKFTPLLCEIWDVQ
- ASSAY NAME: ATG_IR1_CIS: Attagene CIS-FACTORIAL HepG2 Assay for human Nuclear Receptor Subfamily 1 Group H Member 4 (NR1H4), IR1 submotif (AID 2282946)
- EXPERIMENTAL SETUP: IR1 reporter transcription, actives raise or lower the signal
The source made the active and inactive calls. The calls were made as follows: active = hit-call score of the fitted dose curve at least 0.9, where 1 is the maximum; inactive = score below 0.9.
METRIC: AC50

Example entries and their recorded answers appear below.
compound=CC(=[OH+])/C=C(/C)[O-].CC(=[OH+])/C=C(/C)[O-].CC(=[OH+])/C=C(/C)[O-].[Fe] metric=AC50 measurement=inactive
compound="CC1(C)CCC(Cc2ccc(Cl)cc2)C1(O)Cn1cncn1 (centres undefined)" metric=AC50 measurement=inactive
compound=CC(C)CCCCCCOC(=O)c1ccccc1C(=O)OCCCCCCC(C)C metric=AC50 measurement=inactive
compound=O=C(O)C(F)(F)C(F)(F)C(F)(F)C(F)(F)C(F)(F)C(F)(F)F metric=AC50 measurement=inactive
compound=CCOC(=O)CP(=O)(OCC)OCC metric=AC50 measurement=inactive

Task: Any idea what its AC50 is? The compound is "CC(=[OH+])/C=C(/C)[O-].CC(=[OH+])/C=C(/C)[O-].CC(=[OH+])/C=C(/C)[O-].[Al]"
Result: inactive

Task: Any idea what its AC50 is? The compound is "C=CC(=O)OCCCCCC(C)C"
Result: inactive

Task: Any idea what its AC50 is? The compound is "C=C(C)C(=O)[O][Sn]([CH2]CCC)([CH2]CCC)[CH2]CCC"
Result: 11.2 nM (active)

Task: Any idea what its AC50 is? The compound is "CCC(C)(C)c1ccc(O)c(C(C)(C)CC)c1"
Result: 5810 nM (active)

Task: Any idea what its AC50 is? The compound is "CCOP(OCC)OCC"
Result: inactive

Task: Any idea what its AC50 is? The compound is "O=C(Nc1ccc2[nH]ccc2c1)c1cc2cc(F)ccc2n1Cc1cccc(F)c1"
Result: 2930 nM (active)

Task: Any idea what its AC50 is? The compound is "CN(CCCC(=O)c1cccnc1)N=O"
Result: inactive

Task: Any idea what its AC50 is? The compound is "CCOP(=S)(OCC)SCCS(=O)(=O)CC"
Result: inactive

Task: Any idea what its AC50 is? The compound is "C(=NC1CCCCC1)=NC1CCCCC1"
Result: inactive

---

- ASSAY NAME: BSK_3C_TissueFactor: BioMAP Diversity Plus: 3C Assay for Tissue Factor Biomarker Activity (AID 2282997)
- EXPERIMENTAL SETUP: BioMAP 3C HUVEC, tissue factor biomarker readout; actives raise or lower the signal
Activity calls are given as the source filed them. How the source made its calls: active means hit-call score of the fitted dose curve at least 0.9, where 1 is the maximum; inactive means score below 0.9.
Respond using exactly one of the listed classes: active, inactive

Recorded results for 8 compounds are shown here.
compound=C=CC(=O)OCCCCCC(C)C assigned_category=inactive
compound=CCCCCCCCc1ccc(O)cc1 assigned_category=active
compound=O=S(=O)(c1ccc(Cl)cc1)c1ccc(Cl)cc1 assigned_category=inactive
compound=O=C(O)CCC(F)(C(F)(F)F)C(F)(F)F assigned_category=inactive
compound=O=C(O)C(F)(F)C(F)(F)C(F)(F)C(F)(F)C(F)(F)C(F)(F)F assigned_category=inactive
compound=O=C(OC1CCCCC1)c1ccccc1C(=O)OC1CCCCC1 assigned_category=active
compound=O=Cc1cccc(Oc2ccccc2)c1 assigned_category=inactive
compound=CCOP(=S)(OCC)SCCS(=O)(=O)CC assigned_category=inactive

Task: For "ClC(Cl)=C(Cl)C(Cl)=C(Cl)Cl" , what call appears in the results of this test?
Result: active

---

- ASSAY NAME: BSK_hDFCGF_SRB: Viability Assessment in the BioMAP Diversity Plus: hDFCGF Assay (AID 2283061);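 note: cells exposed to compound for 24 h before the read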
- EXPERIMENTAL SETUP: primary human foreskin fibroblasts
Active and inactive are the calls of the source. How the source made its calls: active means hit-call score of the fitted dose curve at least 0.9, where 1 is the maximum; inactive means score below 0.9.
Respond using exactly one of the listed classes: Yes for active, No for inactive

compound="CCSC(C)CC1CC(=O)C(C(CC)=NOC/C=C/Cl)=C(O)C1 (centres undefined)" assigned_category=No
compound=CC(C)(C)c1cc(O)ccc1O assigned_category=Yes
compound=CCC(C)(C)c1ccc(O)c(C(C)(C)CC)c1 assigned_category=Yes
compound=COP(=S)(OC)Oc1cc(Cl)c(Cl)cc1Cl assigned_category=No
compound=CC(=O)[O][Hg][c]1ccccc1 assigned_category=Yes
compound=NC(=S)Nc1ccccc1 assigned_category=No

Task: For "Cn1sc(Cl)cc1=O" , what call appears in the results of this test?
Result: Yes

Task: For "CC(C)c1ccc(CO)cc1" , what call appears in the results of this test?
Result: No

Task: For "BrCCBr" , what call appears in the results of this test?
Result: No

Task: For "C=C(C)C(=O)[O][Sn]([CH2]CCC)([CH2]CCC)[CH2]CCC" , what call appears in the results of this test?
Result: Yes
